experimental-details: Pharmacokinetic studies in rats (single i.v. and p.o. dose)
Assay type: in vivo
experimental-context: male, SD, iv, rat, 20 mg/kg, plasma

compound	AUC(0-t)
COc1cc(/C=C/C2=CC(=O)[C@H]3C[C@@H]2C3(C)C)cc(O)c1O [SP-8356]	981 ng·h/mL

====

experimental-details: Pharmacokinetic studies in rats (single i.v. and p.o. dose)
Format: in vivo
experimental-context: male, SD, rat, plasma, iv, 20 mg/kg

smiles-str	half-life
COc1cc(/C=C/C2=CC(=O)[C@H]3C[C@@H]2C3(C)C)cc(O)c1O	< 6 min

====

Measured Tmax of individual entries
experimental-details: In vivo metabolite identification, pooled rat plasma (Q-TOF LC-MS/MS)
experimental-context: male, SD, iv, i.v. SP-8356 20 mg/kg, time of highest AR
Protocol: Plasma samples from the i.v. administrations described in Section 4.2 and Section 4.3 were used in this study. Plasma samples pooled at each time point were subjected to sample preparation as described in Section 4.2. The prepared samples were analyzed by Agilent 6530 Q-TOF LC-MS/MS system equipped with dual AJS ESI ion source and Agilent 1200 series HPLC system as described below. […]

compound	Tmax
CC1(C)[C@@H]2C[C@H]1C(/C=C/c1cc(O)c(O)c(O)c1)=CC2=O	1.02 min
COc1cc(C=CC2=CC(=O)C3CC2C3(C)C)cc(OC2OC(C(=O)O)C(O)C(O)C2O)c1OC1OC(C(=O)O)C(O)C(O)C1O (centres unmarked)	15 min

====

experimental-details: Bioactivation studies in rat liver S9 fraction
Type: in vitro ADME
experimental-context: Sprague-Dawley, rat, liver S9 fraction, pH 7.4, cofactors: NADPH (1 mM), rat liver S9 1 mg/mL, read-out: SP-8356 (% Remaining at 60 min)
measured-parameter: remaining at 1 h, 5 µM (%)

smiles-str	quantitative-result
COc1cc(/C=C/C2=CC(=O)[C@H]3C[C@@H]2C3(C)C)cc(O)c1O	21.6

====

experimental-details: Metabolic stability in human liver S9 fraction
Assay type: in vitro ADME
experimental-context: human, liver S9 fraction, human liver S9, +Cofactors (NADPH, UDPGA, PAPS, SAM, GSH), 1 μM

smiles-str	half-life at 1 µM
COc1cc(/C=C/C2=CC(=O)[C@H]3C[C@@H]2C3(C)C)cc(O)c1O	< 3 min

====

experimental-details: Pharmacokinetic studies in rats (single i.v. and p.o. dose)
Type: in vivo
experimental-context: male, SD (rat), Beagle (dog), plasma, iv, range over rats and dogs, read-out: mean volumes of distribution during terminal phase (Vz) and at steady state (Vss)
measured-parameter: Vd

smiles-str	measured-parameter	result
COc1cc(/C=C/C2=CC(=O)[C@H]3C[C@@H]2C3(C)C)cc(O)c1O	Vd	1.3 to 1.9 L/kg

====

experimental-details: Pharmacokinetic studies in dogs (single i.v. and p.o. dose)
Assay type: in vivo
experimental-context: male, Beagle, iv, dog, 50 mg/kg, plasma

compound	output-unit	AUC(0-inf)
COc1cc(/C=C/C2=CC(=O)[C@H]3C[C@@H]2C3(C)C)cc(O)c1O [SP-8356]	ng·h/mL	12400

====

experimental-details: Pharmacokinetic studies in rats (single i.v. and p.o. dose)
Format: in vivo
experimental-context: male, SD, rat, plasma, iv, 20 mg/kg, read-out: Vss

compound	Vd, L/kg
COc1cc(/C=C/C2=CC(=O)[C@H]3C[C@@H]2C3(C)C)cc(O)c1O [SP-8356]	1.6
